Molecular target: Genome polyprotein (Dengue virus type 2 (strain 16681-PDK53)) (UniProt P29991)
Assay: flavivirus cap methylation enzyme inhibition – biochemical, confirmation dose response, primary screen (AID 588689)
Details: Dengue-2 NS5 methyltransferase capping enzyme assay, at 25 µM, stronger effect = higher value
About 1,000 (0.29%) of roughly 340,000 compounds were called active. A selection follows. Measured potencies and affinities stand elsewhere.
compounds and their reported inhibition
Field: numeric (%). Do not append units.

{"columns": ["COMPOUND", "UNIT OF MEASUREMENT", "inhibition"],
 "data": [
  ["CCOC(=O)c1c(C)[nH]c(C(=O)OCC(=O)NC2(C#N)CCCCC2)c1C", "%", -11.6]
]}

Which measured inhibition value corresponds to CCOC(=O)N1CCC(Nc2c(-c3ccc(C)c(C)c3)c(=O)c2=O)CC1 ?
-8.18

Which measured inhibition value corresponds to CCOc1ccc(NC(=O)CN(C)C(=O)C2CC(=O)N(c3ccc4c(c3)OCCO4)C2)cc1OCC (stereo not drawn) ?
5.04

---

Biological target: Genome polyprotein (Dengue virus type 2 (strain 16681-PDK53))
Experiment: flavivirus cap methylation enzyme inhibition – biochemical, confirmation dose response, primary screen (AID 588689)
Conditions: Dengue-2 NS5 methyltransferase capping enzyme assay, at 25 µM, stronger effect = higher value
Screen size: about 340,000 compounds; about 1,000 (0.29%) were called active. These entries were drawn from the full list. Results with a measured potency or affinity are listed apart.
RECORDED METRIC: inhibition (%)
Field: numeric (%). Do not append units.

{"columns": ["STRUCTURE", "SUBJECT OF TEST", "MEASURED VALUE"],
 "data": [
  ["O=[N+]([O-])c1cc(C(F)(F)F)ccc1-n1nnc2ccccc21", "Genome polyprotein (Dengue virus type 2 (strain 16681-PDK53))", 1.31],
  ["CCN1C[C@@H]2[C@@H]3C(=O)N(C)C(=O)[C@@H]3[C@](Cc3ccccc3)(C1=O)N2C(=O)c1ccccc1", "Genome polyprotein (Dengue virus type 2 (strain 16681-PDK53))", 1.65]
]}

We now examine a further molecule.
Which measured inhibition value corresponds to CCN(CC)c1ccc(/C=C2/C(=O)ON=C2C)cc1 ?
-145

---

compounds and their reported inhibition
Biological target: Genome polyprotein (Dengue virus type 2 (strain 16681-PDK53)) (UniProt P29991)
Experiment: flavivirus cap methylation enzyme inhibition – biochemical, confirmation dose response, primary screen (AID 588689)
Settings: Dengue-2 NS5 methyltransferase capping enzyme assay, at 25 µM, stronger effect = higher value
The campaign covered roughly 340,000 compounds. About 1,000 (0.29%) were called active. A selection follows. Entries with a potency or affinity are not part of this list.
Field: numeric (%). Do not append units.

{"columns": ["COMPOUND", "UNIT OF MEASUREMENT", "inhibition"],
 "data": [
  ["Cc1ccc(C=NNc2ccc([N+](=O)[O-])cn2)cc1", "%", -5.44]
]}

Which measured inhibition value corresponds to CC(=O)Nc1ccc(S(=O)(=O)Nc2c(C)nn(-c3ccccc3)c2C)cc1 ?
-3.38

Which measured inhibition value corresponds to Cc1c(N(C)C(=O)c2ccccc2F)c(=O)n(-c2ccccc2)n1C ?
2.15

Which measured inhibition value corresponds to N#CCCn1cc(/C=C2\NC(=S)N(c3ccccc3)C2=O)c(-c2ccc(F)cc2)n1 ?
-8.84

Which measured inhibition value corresponds to O=C(OCc1ccc(F)cc1)c1ccc2c(c1)-c1ccccc1C2=O ?
6.7

Which measured inhibition value corresponds to CCOC(=O)/C=C(\C)Sc1cc(=O)oc2ccccc12 ?
-12.1

Which measured inhibition value corresponds to O=C(CN1C(=O)c2cccc([N+](=O)[O-])c2C1=O)N1CCc2ccccc2C1 ?
-5.49

Which measured inhibition value corresponds to CCCOc1ccc(/C=C2/C(=O)ON=C2C)cc1Cl ?
12.4
